# TEST TARGET: PD-L1 ligand (analyte of the Octet affinity measurement) (UniProt Q9NZQ7 19-238, limits assumed)
# Sequence (Q9NZQ7 19-238 limits assumed): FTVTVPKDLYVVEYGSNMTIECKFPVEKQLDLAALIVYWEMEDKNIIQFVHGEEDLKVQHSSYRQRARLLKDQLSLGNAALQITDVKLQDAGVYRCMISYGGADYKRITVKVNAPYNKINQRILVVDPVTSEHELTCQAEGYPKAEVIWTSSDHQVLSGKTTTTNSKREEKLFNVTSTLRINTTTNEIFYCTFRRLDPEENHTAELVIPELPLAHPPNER
# ASSAY DETAILS: BLI (Octet RED 96), antibody captured on anti-human IgG sensor, PD-L1 in solution, 1:1 fit
MEASURED ATTRIBUTE: pKd
Formally, pKd is defined as -log10 of the concentration c, with c in mol/L.

[
  {
    "BINDER": "chimeric anti-PD-L1 antibody 115C1 (antibody, V domains shown) VH: CQSVKESEGGLFKPTDTLTLTCTVSGFSLSSVAVSWVRQAPGKGLEWIGTISYTGNTYYASWAKSRSTITRNTNENTVTLKMPSLTVADTATYFCAKEILYYGMDFWGPGTLVTVSS VL: DIVMTQTPSSVSAAVGGTVTINCQASQSISSYLAWYQQKPGQPPKLLIYGASNLESGVPSRFKGSGSGTDFTLTISDLECADAATYYCQSTYGSTSTSDYGNAFGGGTKVVVVR",
    "pKd": 10.29
  }
]

For the binder chimeric anti-PD-L1 antibody 111H2 (antibody, V domains shown, also called chimeric anti-PD-L1 111H2 antibody) VH: QEQLVESGGGLVQPGGTLKLSCKGSGFDLSSNAMCWVRQAPGKGLEWIGCIVYGNCYYASWVNGRFTISSDNAQSSVDLQLNSLTAADTATYFCARDPAGSSVYTGGFNIWGPGTLVTVSS VL: AIDMTQTPSPVSAAVGDTVTINCQASENIYSFLAWYQQKPGHSPKPLIYFASKLASGVPSRFKGSGSGTQFTLTISDVQCDDAATYYCQQTVSYKNADTAFGGGTKVVVVR , what pKd is on record? 9.74

For the binder chimeric anti-PD-L1 antibody 115E2 (antibody, V domains shown) VH: CQSVKESEGGLFKPMDTLTLTCTVSGIDLGSVAISWVRQAPGKGLEWIGTIGSSGSAYYASWAKSRSTITRNTNLNTVTLKMTSLTAADTASYFCAKEILYYGMDRWGPGTLVTVSS VL: DVVMTQTPASVEASVGGTVTINCQASQSISSYLAWYQQKPGQPPKLLIYAASNLEPGVPSRFKGSGSGTEFTLTISDLECADAATYYCQATYGSTSSSDYGNAFGGGTKVVVVR , what pKd is on record? 10.00

For the binder chimeric anti-PD-L1 antibody 113F1 (antibody, V domains shown) VH: CQSVKESEGGLFKPTDTLTLTCTVSGIDLSSIAISWVRQAPGNGLEWIGTINSYGSTYYASWAQSRSTITRNTNENTVTLKMTSLTAADTASYFCAKEILYYGMDVWGPGTLVTVSS VL: DVVMTQTPASVEAAVGGTVTIKCQASQSISSYLAWYQQKPGQPPKLLIYAASNLESGVPSRFKGSGSGTEYTLTISDLECDDAATYYCQSTYGTTSTSDYGNAFGGGTKVVVVR , what pKd is on record? 9.94

For the binder chimeric anti-PD-L1 antibody 110B4 (antibody, V domains shown) VH: CQSVKESEGGLFKPTDTLTLTCKVSGIDLSSISISWVRQAPGNGLEWIGVINSYGNTYYASWAKSRSTITRNTNENTVTLKMTSLTAADTATYFCAKEILYYGMDLWGPGTLVTVSS VL: DVVMTQTPASVEAAVGGTVTIKCQASQSISSYFSWYQQKPGQRPKLLIYDASNLESGVPSRFKGSRSGTEYTLTISDLEWDDAATYYCQCTYGSTSSSNYGNNFGGGTKVVVVR , what pKd is on record? 9.76
